system: Pseudomonas aeruginosa; assay: EDTA salt dilution test, MIC/MBC; type: cell-based; conditions: two entries, Exhibit A2
property-label: MIC, minimum concentration required to inhibit growth

O=C([O-])CN(CCN(CC(=O)[O-])CC(=O)[O-])CC(=O)[O-].[Na+].[Na+].[Na+].[Na+] [Tetrasodium EDTA] | 2000 µg/mL
O=C([O-])CN(CCN(CC(=O)[O-])CC(=O)[O-])CC(=O)[O-].[Mg+2].[Na+].[Na+] [Magnesium disodium EDTA] | >30000 µg/mL
N.N.O=C(O)CN(CCN(CC(=O)O)CC(=O)O)CC(=O)O | 1000 µg/mL
O=C([O-])CN(CCN(CC(=O)[O-])CC(=O)[O-])CC(=O)[O-].[Cu+2].[Na+].[Na+] [Cupric disodium EDTA] | >30000 µg/mL
O=C([O-])CN(CCN(CC(=O)O)CC(=O)O)CC(=O)[O-].[K+].[K+] | 1000 µg/mL
O=C([O-])CN(CCN(CC(=O)[O-])CC(=O)[O-])CC(=O)[O-].[Fe+3].[Na+] [Ferric-sodium salt EDTA] | 15000 µg/mL

----------
tested on: Kleb. ornitholytica; assay: EDTA salt dilution test, MIC/MBC; assay type: cell-based; conditions: Exhibit A1
property-label: MBC, minimum concentration required to kill an entire population

O=C([O-])CN(CCN(CC(=O)[O-])CC(=O)[O-])CC(=O)[O-].[Mg+2].[Na+].[Na+] [Magnesium disodium EDTA] | >30 mg/mL
N.N.O=C(O)CN(CCN(CC(=O)O)CC(=O)O)CC(=O)O [Diammonium EDTA] | >10 mg/mL
O=C([O-])CN(CCN(CC(=O)[O-])CC(=O)[O-])CC(=O)[O-].[Fe+3].[Na+] [Ferric-sodium salt EDTA] | >15 mg/mL
O=C([O-])CN(CCN(CC(=O)[O-])CC(=O)[O-])CC(=O)[O-].[Cu+2].[Na+].[Na+] [Cupric disodium EDTA] | >30 mg/mL
O=C([O-])CN(CCN(CC(=O)[O-])CC(=O)[O-])CC(=O)[O-].[Na+].[Na+].[Na+].[Na+] [Tetrasodium EDTA] | 30 mg/mL
O=C([O-])CN(CCN(CC(=O)O)CC(=O)O)CC(=O)[O-].[K+].[K+] [Dipotassium EDTA] | >15 mg/mL

----------
MIC, minimum concentration required to inhibit growth values, listed per item
system: Coryneform strait/amy; experiment: EDTA salt dilution test, MIC/MBC; assay type: cell-based; conditions: Exhibit A2
property-label: MIC, minimum concentration required to inhibit growth

O=C([O-])CN(CCN(CC(=O)[O-])CC(=O)[O-])CC(=O)[O-].[Na+].[Na+].[Na+].[Na+] [Tetrasodium EDTA] | <500 mg/L
O=C([O-])CN(CCN(CC(=O)[O-])CC(=O)[O-])CC(=O)[O-].[Fe+3].[Na+] [Ferric-sodium salt EDTA] | 10000 mg/L
O=C([O-])CN(CCN(CC(=O)[O-])CC(=O)[O-])CC(=O)[O-].[Mg+2].[Na+].[Na+] [Magnesium disodium EDTA] | <500 mg/L
O=C([O-])CN(CCN(CC(=O)O)CC(=O)O)CC(=O)[O-].[K+].[K+] [Dipotassium EDTA] | <500 mg/L
O=C([O-])CN(CCN(CC(=O)[O-])CC(=O)[O-])CC(=O)[O-].[Cu+2].[Na+].[Na+] [Cupric disodium EDTA] | <500 mg/L
N.N.O=C(O)CN(CCN(CC(=O)O)CC(=O)O)CC(=O)O [Diammonium EDTA] | <500 mg/L

----------
Test system: S. lentus
Assay: EDTA salt dilution test, MIC/MBC
Type: cell-based
Conditions: Exhibit A2
Procedure: Protocol one: Broth dilutions: Inoculate a 25 ml nutrient broth (Oxoid No2) in a sterile universal container with one of the following organisms; Pseudomonas aeruginosa, Proteus Mirabilis, E. coli, Klebsiella pneumoniae, Staph aureus, Coagulase negative staphylococci, Enterococcus faecalis or MRSA. Incubate the broth at 37° C. overnight. […] Next day visually read the MIC's by observing the turbidity of the broths. […] Next day read the MBC's by performing colony counts.
property-label: MIC, minimum concentration required to inhibit growth

O=C([O-])CN(CCN(CC(=O)O)CC(=O)O)CC(=O)[O-].[K+].[K+] | <500 µg/mL
O=C([O-])CN(CCN(CC(=O)[O-])CC(=O)[O-])CC(=O)[O-].[Cu+2].[Na+].[Na+] [Cupric disodium EDTA] | <500 µg/mL
O=C([O-])CN(CCN(CC(=O)[O-])CC(=O)[O-])CC(=O)[O-].[Na+].[Na+].[Na+].[Na+] [Tetrasodium EDTA] | 1000 µg/mL
O=C([O-])CN(CCN(CC(=O)[O-])CC(=O)[O-])CC(=O)[O-].[Fe+3].[Na+] [Ferric-sodium salt EDTA] | >20000 µg/mL
N.N.O=C(O)CN(CCN(CC(=O)O)CC(=O)O)CC(=O)O | <500 µg/mL
O=C([O-])CN(CCN(CC(=O)[O-])CC(=O)[O-])CC(=O)[O-].[Mg+2].[Na+].[Na+] [Magnesium disodium EDTA] | 6000 µg/mL

----------
tested on: S. simulans; assay: EDTA salt dilution test, MIC/MBC; type: cell-based; settings: Exhibit A1
property-label: MBC, minimum concentration required to kill an entire population (mg/mL)

O=C([O-])CN(CCN(CC(=O)[O-])CC(=O)[O-])CC(=O)[O-].[Na+].[Na+].[Na+].[Na+] [Tetrasodium EDTA] | 30
O=C([O-])CN(CCN(CC(=O)O)CC(=O)O)CC(=O)[O-].[K+].[K+] | 8
N.N.O=C(O)CN(CCN(CC(=O)O)CC(=O)O)CC(=O)O | 10

----------
MIC, minimum concentration required to inhibit growth values, listed per item
system: Kleb. ornitholytica; assay: EDTA salt dilution test, MIC/MBC; type: cell-based; conditions: Exhibit A2
property-label: MIC, minimum concentration required to inhibit growth (µg/mL)

O=C([O-])CN(CCN(CC(=O)[O-])CC(=O)[O-])CC(=O)[O-].[Na+].[Na+].[Na+].[Na+] [Tetrasodium EDTA] | 4000
O=C([O-])CN(CCN(CC(=O)[O-])CC(=O)[O-])CC(=O)[O-].[Fe+3].[Na+] [Ferric-sodium salt EDTA] | 15000
N.N.O=C(O)CN(CCN(CC(=O)O)CC(=O)O)CC(=O)O [Diammonium EDTA] | 1000
O=C([O-])CN(CCN(CC(=O)O)CC(=O)O)CC(=O)[O-].[K+].[K+] [Dipotassium EDTA] | 1000

----------
MBC, minimum concentration required to kill an entire population values, listed per item
tested on: Proteus vulgaris; assay: EDTA salt dilution test, MIC/MBC; assay type: cell-based; conditions: Exhibit A1
property-label: MBC, minimum concentration required to kill an entire population

O=C([O-])CN(CCN(CC(=O)[O-])CC(=O)[O-])CC(=O)[O-].[Mg+2].[Na+].[Na+] [Magnesium disodium EDTA] | .30 mg/mL
O=C([O-])CN(CCN(CC(=O)[O-])CC(=O)[O-])CC(=O)[O-].[Fe+3].[Na+] [Ferric-sodium salt EDTA] | >15 mg/mL
O=C([O-])CN(CCN(CC(=O)[O-])CC(=O)[O-])CC(=O)[O-].[Na+].[Na+].[Na+].[Na+] [Tetrasodium EDTA] | 20 mg/mL
O=C([O-])CN(CCN(CC(=O)[O-])CC(=O)[O-])CC(=O)[O-].[Cu+2].[Na+].[Na+] [Cupric disodium EDTA] | >30 mg/mL
N.N.O=C(O)CN(CCN(CC(=O)O)CC(=O)O)CC(=O)O [Diammonium EDTA] | >10 mg/mL
O=C([O-])CN(CCN(CC(=O)O)CC(=O)O)CC(=O)[O-].[K+].[K+] [Dipotassium EDTA] | >15 mg/mL

----------
MBC, minimum concentration required to kill an entire population values, listed per item
test system: Steno. maltophilia; experiment: EDTA salt dilution test, MIC/MBC; type: cell-based; conditions: Exhibit A1
property-label: MBC, minimum concentration required to kill an entire population

O=C([O-])CN(CCN(CC(=O)[O-])CC(=O)[O-])CC(=O)[O-].[Na+].[Na+].[Na+].[Na+] [Tetrasodium EDTA] | 4 mg/mL
N.N.O=C(O)CN(CCN(CC(=O)O)CC(=O)O)CC(=O)O [Diammonium EDTA] | >10 mg/mL
O=C([O-])CN(CCN(CC(=O)[O-])CC(=O)[O-])CC(=O)[O-].[Cu+2].[Na+].[Na+] [Cupric disodium EDTA] | >30 mg/mL
O=C([O-])CN(CCN(CC(=O)[O-])CC(=O)[O-])CC(=O)[O-].[Mg+2].[Na+].[Na+] [Magnesium disodium EDTA] | >30 mg/mL
O=C([O-])CN(CCN(CC(=O)O)CC(=O)O)CC(=O)[O-].[K+].[K+] [Dipotassium EDTA] | 10 mg/mL
O=C([O-])CN(CCN(CC(=O)[O-])CC(=O)[O-])CC(=O)[O-].[Fe+3].[Na+] [Ferric-sodium salt EDTA] | >15 mg/mL
